Sourced from patent US20250019450A1

# systemTested: T1, cyno IL-12RB2 with C-terminal HA tag, transiently expressed on HEK-293T cells (cyno, UniProt A0A2K5VNI7 24-860)
# T1 construct: whole, on cells; also called cyno IL-12Rβ2
# T1 sequence: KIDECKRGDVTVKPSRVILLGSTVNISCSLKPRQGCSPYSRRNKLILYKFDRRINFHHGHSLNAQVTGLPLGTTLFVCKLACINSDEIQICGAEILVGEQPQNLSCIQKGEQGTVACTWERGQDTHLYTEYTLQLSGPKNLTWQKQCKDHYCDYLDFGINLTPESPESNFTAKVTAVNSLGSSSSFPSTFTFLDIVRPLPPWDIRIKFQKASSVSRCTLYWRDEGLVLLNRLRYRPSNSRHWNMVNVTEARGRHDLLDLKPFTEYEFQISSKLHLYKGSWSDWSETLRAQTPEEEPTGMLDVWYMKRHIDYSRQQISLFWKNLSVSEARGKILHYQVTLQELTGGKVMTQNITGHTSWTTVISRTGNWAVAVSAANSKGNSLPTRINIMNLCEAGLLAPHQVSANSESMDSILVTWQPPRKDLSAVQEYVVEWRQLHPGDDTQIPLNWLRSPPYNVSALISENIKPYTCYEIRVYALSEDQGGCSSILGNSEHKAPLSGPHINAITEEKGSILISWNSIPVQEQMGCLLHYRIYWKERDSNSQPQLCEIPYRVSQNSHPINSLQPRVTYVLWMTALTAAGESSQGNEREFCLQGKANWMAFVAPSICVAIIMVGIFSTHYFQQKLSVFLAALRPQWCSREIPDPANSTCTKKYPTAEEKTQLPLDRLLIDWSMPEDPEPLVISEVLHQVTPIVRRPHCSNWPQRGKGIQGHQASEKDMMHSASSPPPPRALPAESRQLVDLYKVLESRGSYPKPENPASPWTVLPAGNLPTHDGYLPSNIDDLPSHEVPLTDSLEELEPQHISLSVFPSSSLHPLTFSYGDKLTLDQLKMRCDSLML
# procedureSummary: FACS, periplasmic extract, HEK-293T
readout: FOB (fold)

For orientation, consider the following solved cases.
>>> observedresult("VHH194B2 (VHH) VHH: QLQLVESGGGLVQAGGSLRLSCAASGLTFSGYTVGWFRQAPGKEREFVAAINWSSAYTYSEFVKGRFTISRDNAKNTVYLQMSSLKPEDTAVYYCAARRSRTSWYASTAEAYDYWGQGTQVTVSS")
3.06
>>> observedresult("VHH190B2 (VHH) VHH: QVQLQESGPGLVKPSQTLSLTCTVSGGSITTNYYYWSWIRQPPGKGLEWMGAIAYSGSTYYSPSLKSRTSISRDTSKNQFTLQLSSVTPEDTAVYYCASGINFYSNYPTLNEYDYWGQGTQVTVSS")
3.78

1 = VHH289B2 (VHH) VHH: QVQLVESGGGLVQAGGSLKLSCAASGGTFSSYAMGWFRQAPGKEREFVAAIMRSGGTTVYVNSVKGRFTVSRDNAKNTVYLQMNSLKPEDAAVYYCAAGRPVSRTSYYTYTYPHDYDYWGQGTQVSVSS
2 = VHH211B2 (VHH) VHH: QVQLVESGGGLVQAGNSLRLSCAASGRTFSSYVVGWFRQAPGKEREFVGRISWSGARTYYADSVKGRFTISRDNAKNTVYLQMNSLKPEDTAVYYCAADLKWEVLLSEHFEYWGQGTQVTVSS
Inquiry: Form: Entry with minimum FOB (choose one): 1 / 2 In your reply, give the label of the chosen option.
Reply text: 2
(2: 0.99 fold, 1: 2.88 fold)
